Attribution: the RNAGym collection of RNA variant scans (doi:10.7554/elife.80360)

B1: CPEB3 Ribozyme (parent)
chain: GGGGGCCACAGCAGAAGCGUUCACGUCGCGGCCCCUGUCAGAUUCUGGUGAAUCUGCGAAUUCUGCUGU

Variants of: B1
Assay: self-cleavage, relative activity (ratio to wild type); higher = more cleavage; co-transcriptional
Where self-cleavage equals or exceeds 0.4, the correct label is satisfied; where it does not, the label is not satisfied.

Here's what some known entries look like.
MUTATION_SPEC: G4A G5A
CATEGORY_LABEL: not satisfied
--
MUTATION_SPEC: U53A U69A
CATEGORY_LABEL: satisfied
--
MUTATION_SPEC: G41A G65U
CATEGORY_LABEL: not satisfied
--
MUTATION_SPEC: C45G U61C
CATEGORY_LABEL: satisfied
--
MUTATION_SPEC: G1U C29U
CATEGORY_LABEL: not satisfied
--
MUTATION_SPEC: U62G
CATEGORY_LABEL: satisfied
--
MUTATION_SPEC: A16U G30A
CATEGORY_LABEL: not satisfied
--
MUTATION_SPEC: A40C C66A
CATEGORY_LABEL: not satisfied
--
MUTATION_SPEC: A51C G56U
CATEGORY_LABEL: satisfied
--
MUTATION_SPEC: A15G U69A
CATEGORY_LABEL: satisfied

[in] Answer whether self-cleavage of U44G C63U is greater than or equal to 0.4.
[out] satisfied

[in] Confirm if self-cleavage reported for the variant U36A U53A is 0.4 or above.
[out] not satisfied
